Values compiled from PubChem BioAssay (NCI).

tested on: NCI-H23 lung; assay: NCI tumour cell line growth inhibition, 48 h
experimental-endpoint: TGI (µM)

{"compound": "COC(=O)[C@H](Cc1ccc(OC(C)(C)C)cc1)N[C@H](C)C(=O)N[C@@H](Cc1ccccc1)C(=O)OCc1ccccc1", "experimental-endpoint": "TGI", "unit-info": "µM", "sign-qualifier": ">", "recorded-measurement": 100}
{"compound": "CC1CCC2(CC1)NC1=C(CC(C)CC1)C1=C2CC(C)CC1 (stereo unspecified)", "experimental-endpoint": "TGI", "unit-info": "µM", "sign-qualifier": "=", "recorded-measurement": 59}
{"compound": "O=c1oc2ccc(Br)cc2c(=O)n1-c1ccc(I)cc1F", "experimental-endpoint": "TGI", "unit-info": "µM", "sign-qualifier": "=", "recorded-measurement": 1.89}
{"compound": "O=C(CSc1nc2ccc(I)cc2c(=O)n1Cc1ccccc1)NNC(=O)c1ccccc1", "experimental-endpoint": "TGI", "unit-info": "µM", "sign-qualifier": "=", "recorded-measurement": 68.8}
{"compound": "CC(C)NC(=O)CCN(C(=O)O)S(=O)(=O)c1ccc(NC(=O)c2ccccc2)cc1", "experimental-endpoint": "TGI", "unit-info": "µM", "sign-qualifier": ">", "recorded-measurement": 100}
{"compound": "O=C(C/C(=N/O)c1cc(-c2ccccc2)no1)c1ccccc1", "experimental-endpoint": "TGI", "unit-info": "µM", "sign-qualifier": "=", "recorded-measurement": 43.3}

---

tested on: TK-10 renal; test: NCI tumour cell line growth inhibition, 48 h

{"molecule": "OCCN1CCN2C=C(C3CCCC4N(CCO)CCN34)CCC21 (stereo not given)", "TGI": "> 100 µM"}
{"molecule": "Cn1c(NCC(O)CN2CCCC2)cc(=O)n(C)c1=O (stereo not given)", "TGI": "> 100 µM"}
{"molecule": "Cc1cccc(-c2cc(=O)c3c(C)cc(C)nc3[nH]2)c1", "TGI": "> 100 µM"}
{"molecule": "Cc1ccc(Cl)c(Nc2ccccc2C(=O)O)c1Cl", "TGI": "86 µM"}
{"molecule": "Nc1cc(=O)n(-c2ccccc2)c(=S)n1-c1ccccc1", "TGI": "> 100 µM"}
{"molecule": "COc1cc2c(cc1OCCCCOc1cc3c(cc1OC)C(=O)N1CCC[C@H]1C(=O)N3)N=C[C@@H]1CCCN1C2=O", "TGI": "27.4 µM"}
{"molecule": "COC(=O)[C@H](Cc1ccc(OC(C)(C)C)cc1)N[C@H](C)C(=O)N[C@@H](Cc1ccccc1)C(=O)OCc1ccccc1", "TGI": "> 100 µM"}
{"molecule": "CC(=O)OC12c3ccccc3-c3ccccc3C1C1C(=O)OC(=O)C12 (stereo not given)", "TGI": "> 10 µM"}
{"molecule": "CN(C)c1ccc(/C=C/C2=[N+](C)c3ccccc3C2(C)C)cc1", "TGI": "32.5 µM"}
{"molecule": "Cc1ccccc1-n1c2nc(=O)n(C)c(=O)c-2nc2ccccc21", "TGI": "35.2 µM"}
{"molecule": "CC(=O)OC1COC(N2C(=O)C(=O)c3cc(Br)ccc32)C(OC(C)=O)C1OC(C)=O (stereo not given)", "TGI": "> 100 µM"}
{"molecule": "OCc1c[te]c(-c2ccccc2)c1", "TGI": "> 100 µM"}
{"molecule": "O=S(=O)(/N=c1/scc(-c2ccccc2)n1-c1ccccc1)c1ccc(N2N=C3c4ccccc4CC3C2c2cccs2)cc1 (stereo not given)", "TGI": "75.3 µM"}
{"molecule": "O=C1C=C(OCCCCl)C(=O)c2c(O)ccc(O)c21", "TGI": "3.46 µM"}
{"molecule": "C[C@@H](NC(=O)c1ccc(CNC(=O)/C=C/c2cccc(Oc3ccccc3)c2)cc1)c1ccccc1", "TGI": "> 89.2 µM"}
{"molecule": "CCOC(=O)c1c2c(c(O)c3ccccc3c(O)n(Cc3ccccc3)c1C)C(=O)C=CC2=O", "TGI": "> 100 µM"}
{"molecule": "CC(=O)c1cc(C(=O)c2ccc3c(c2)Sc2ccccc2N3)c2cc(C)ccn12", "TGI": "> 100 µM"}
{"molecule": "O=C1CCSC2=C1SCc1sccc12", "TGI": "> 100 µM"}
{"molecule": "NCC1OC(OC2C(CO)OC(OC3C(O)C(N)CC(N)C3OC3OC(CO)C(O)CC3N)C2O)C(N)C(O)C1OC1OC(CO)C(O)C(O)C1O (stereo not given)", "TGI": "> 50 µg/mL"}
{"molecule": "Cn1cc(C2=C(c3cn(C)c4ccccc34)C(=O)NC2=O)c2ccccc21", "TGI": "> 25 µM"}
